organism: Rattus norvegicus; assay: Open TG-GATES - Regimen: Single; format: toxicity, organism-based, Sprague-Dawley; parameters: regimen Single, gender Male, age 6 weeks; conditions: in vivo, po, 100 mg/kg, 6 h, tissue Plasma, route gavage, dose level High
metric.name: K (meq/L)
State the answer as a number, implicitly in meq/L.

Identify measured K corresponding to CN(C)CCCN1c2ccccc2CCc2ccc(Cl)cc21
4.1

Identify measured K corresponding to CC1=C(/C=C/C(C)=C/C=C/C(C)=C/CO)C(C)(C)CCC1
4.3

Identify measured K corresponding to CN(C)CCN(Cc1cccs1)c1ccccn1
4.5

Identify measured K corresponding to CN(C)CCCN1c2ccccc2CCc2ccccc21
4
